- Experimental Target: T1, PUF4 RNA-binding domain (Saccharomyces cerevisiae, UniProt P25339 537-888)
- T1 sequence: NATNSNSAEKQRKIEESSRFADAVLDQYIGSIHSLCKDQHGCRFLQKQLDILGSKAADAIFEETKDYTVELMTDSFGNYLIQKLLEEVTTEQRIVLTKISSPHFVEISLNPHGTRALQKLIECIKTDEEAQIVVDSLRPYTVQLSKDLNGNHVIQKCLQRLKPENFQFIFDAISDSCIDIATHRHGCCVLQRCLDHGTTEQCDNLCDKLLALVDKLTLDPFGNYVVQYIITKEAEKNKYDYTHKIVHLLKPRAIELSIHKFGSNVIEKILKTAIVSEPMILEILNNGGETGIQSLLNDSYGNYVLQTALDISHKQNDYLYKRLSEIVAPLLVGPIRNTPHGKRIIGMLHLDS
- Assay Overview: Mg; RNA-MaP; 20 mM Na-HEPES pH 7.4, 30 mM KOAc, 0.75 mM MgCl2, 0.1% Tween-20, 5% glycerol, 0.1 mg/mL BSA, 2 mM DTT; 25 C; 0.0125-409.6 nM protein
- Particulars: tags: N-His6-TEV cleaved; C-SNAP kept, Cy3B-labelled; label: tethered on chip by stalled RNA polymerase
pKd: −log10 of the molar value.
Binary classification by pKd, with 7 as an inclusive lower bound for met; all other cases are not met.

Could you verify whether the entry Id_ii_S2_P5E.3_K5.2_C5.2_[T-1A]_H5.2_A5.1_F5.1_T5.2_[T11A] (ssRNA) RNA: UUUGAUUAAUAUGAUAUCGUUCUUUCUCAUAUAUUAUUAAAUUCUUUCUCGAUAUCAUAUUAAUCUUU shows pKd of no less than 7? not met

Could you verify whether the entry UCUCUUCCUGUAUAUUAACUCUCUU (ssRNA) [Id_ii_S1_P4E.2_K4.1_C4.2_[T-1C]_H4.1_A4.1_F4.1_T4.2_[G10A]_[T11C]] shows pKd of no less than 7? met

Could you verify whether the entry Ib_S2_P5E.1_K5.1_C5.1_H5.1_[A4T]_A5.1_[T6C]_F5.1_T5.1 (ssRNA) RNA: UUUGAUUAAUAUGAUAUCGUUCUUUCUUGUUUCAUUAUUCUUUCUCGAUAUCAUAUUAAUCUUU shows pKd of no less than 7? met

Could you verify whether the entry UCUCUUUGUAAACCGCUCUCUU (ssRNA) [Ic_S1_P5E.1_K5.1_C5.1_H5.1_A5.1_[T5A]_[T6A]_[A7C]_F5.1_[T8C]_[T9G]_[A10C]_T5.1] shows pKd of no less than 7? not met

Could you verify whether the entry UCUCUUGAUAUAUAUACCUCUCUU (ssRNA) [Id_ii_S1_P3E.3_K3.2_C3.2_[C-2G]_[T-1A]_H3.2_A3.1_F3.1_T3.2_[T9C]_[A10C]] shows pKd of no less than 7? not met

Could you verify whether the entry UCUCUUUGUCUUUUAUCUCUU (ssRNA) [Ib_S1_P4E.1_K4.1_C4.1_H4.1_[A4C]_A4.1_[A6T]_F4.1_T4.1] shows pKd of no less than 7? not met
